# TEST SUMMARY: growth inhibition, single agent and combos, cell-based, chromothripsis tumors, cisplatin or BGB combos (AID 1671450);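 further: cells exposed to compound for four days; 0% = vehicle DMSO and 100% = cell killing by high DMSO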
# CONDITION DESCRIPTION: HDN33 neuroblastoma cells, cisplatin combo, at 5 µM, stronger effect = higher value
PARAMETER MEASURED: inhibition
The answer should read as a number with its unit following.

# count of solved cases: 7
- STRUCTURE SMILES: "Nc1[nH]c(=O)ncc1F"
  inhibition: "-41.9%"
- STRUCTURE SMILES: "C[C@H]1COc2c(C3(N)CC3)c(F)cc3c(=O)c(C(=O)O)cn1c23"
  inhibition: "-7.06%"
- STRUCTURE SMILES: "O=NN(CCCl)C(=O)NCCCl"
  inhibition: "-3.04%"
- STRUCTURE SMILES: "NC(=O)NO"
  inhibition: "7.9%"
- STRUCTURE SMILES: "Cc1ccnc2c1NC(=O)c1cccnc1N2C1CC1"
  inhibition: "24.4%"
- STRUCTURE SMILES: "O=c1c(O)c(-c2ccc(O)c(O)c2)oc2cc(O)cc(O)c12"
  inhibition: "10.5%"
- STRUCTURE SMILES: "O=C(O)CCCCCCCC(=O)O"
  inhibition: "-22.7%"

Here is another compound to look at.
IN: Record request: inhibition value, item Nc1nc2c(ncn2COC(CO)CO)c(=O)[nH]1
OUT: 55%
